- ASSAY_TARGET: T1, PDZD2_2, O15018
- T1 sequence (O15018 329-429, limits assumed, looked up): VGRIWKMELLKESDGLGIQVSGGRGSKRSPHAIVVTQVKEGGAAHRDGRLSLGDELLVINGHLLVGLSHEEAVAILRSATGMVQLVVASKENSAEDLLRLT
- ASSAY_REMARKS: holdup assay
- Set-up: key: below the threshold = too weak to quantify, mostly under pKd 3.1 to 4
- SETUP_CONDITIONS: plain residues with an end cap or a label only (N-terminal biotin on a linker: ado-ado)
MEASUREMENT_LABEL: pKd

{"columns": ["BINDER", "MEASUREMENT_LABEL", "REPORTED_VALUE"],
 "data": [
  ["LSEFKAMDSI [CTNNA1, P35221]", "pKd", "below the threshold"],
  ["PLSPEQPTKL [TRIM50, Q86XT4]", "pKd", "below the threshold"],
  ["YNNCLEILRV [DCAF7, P61962]", "pKd", "below the threshold"]
]}
